Cited source: ChEMBL document CHEMBL1201862

# Tested on: MDA-MB-231
# procedure_summary: NCI tumour cell line growth inhibition, 48 h
Calls of active or inactive are those of the source. Rule as the data show it: active = GI50 up to about 1.1 µM and inactive = higher.
test_readout: GI50

Form: Entry = Cc1cn(CC2=NCC(C)(C)CN2)c(=O)[nH]c1=O | System = MDA-MB-231 | GI50 = ____ > 100 µM (inactive)

MDA-MB-231 / GI50 / CC(C(=O)NCNC(=O)c1ccccc1)C(=O)Nc1ccccc1 (stereo unspecified) : value? > 100 µM (inactive)

Please tell me: GI50 of c1ccc(C2=NN=C3C(c4ccccc4)=Nc4ccccc4N3C2)cc1 , system MDA-MB-231? 38.9 µM (inactive)

Item: COc1ccc2c(c1)-c1[nH]c3ccccc3c1CC2 Test system: MDA-MB-231 Read-out: GI50 Value: ? 16.8 µM (inactive)

State its GI50 on MDA-MB-231: C=C1C(C2(C)C=CC(=O)OC3(C)COC(=O)CC32)C(OC=O)C(OC(=O)C(O)C(C)CC)C2(C)C(c3ccoc3)CC(OC(C)=O)C12O (stereo unspecified) > 100 µM (inactive)

Recall the recorded GI50 for Cc1ccc(-c2cn3c(nc4ccccc43)c(-c3ccccc3)n2)cc1 with MDA-MB-231 and state it. > 100 µM (inactive)

Provide value of GI50 for this record tested with MDA-MB-231: Cn1c(CC(O)c2nc3ccccc3n2C)nc2ccccc21 (stereo unspecified) > 34.8 µM (inactive)

// lookup GI50 | system=MDA-MB-231 | key= COc1c(C)c(C/C=C(\C)CC/C=C(\C)CCC=C(C)C)c(OC)c(OC)c1OC > 100 µM (inactive)

Record COc1ccc(C2CC(=O)Oc3ccccc3O2)cc1 (stereo unspecified) : what is its GI50 with MDA-MB-231? > 100 µM (inactive)

Item: CCOC(=O)c1ccc(-c2onc(C)c2Br)[nH]1 Test system: MDA-MB-231 Read-out: GI50 Value: ? 41.7 µM (inactive)

Recall the recorded GI50 for Nc1nc(-[n+]2ccc(-c3ccncc3)cc2)nc(Cl)c1Cl with MDA-MB-231 and state it. 35.4 µM (inactive)

====

# System: TK-10
# procedure_summary: NCI tumour cell line growth inhibition, 48 h
The source made the active and inactive calls. No stated cut-off is given here; in the data, active = GI50 up to about 1.1 µM and inactive = higher.
test_readout: GI50

Could you share which GI50 value was measured for COc1nncc2[nH]c(-c3ccccc3)cc12 ? 53.1 µM (inactive)

What value of GI50 has been reported for the following molecule? COc1cc([C@H]2c3cc4c(cc3[C@H](NCc3ccc([N+](=O)[O-])cc3)C3COC(=O)[C@H]32)OCO4)cc(OC)c1O (stereo partly drawn) 1.96 µM (inactive)

Can you share its GI50? I mean this molecule: O=C(COC(=O)c1cccc2c(=O)c3ccccc3[nH]c12)Nc1ccccc1 > 100 µM (inactive)

====

# Tested on: OVCAR-5
# procedure_summary: NCI tumour cell line growth inhibition, 48 h
Activity calls are given as the source filed them. No stated cut-off is given here; in the data, active = GI50 up to about 1.1 µM and inactive = higher.
test_readout: GI50

Would you kindly share the measured GI50 for CCOC(=O)/C(=C\NC(N)=S)C(=O)c1ccccc1 ? > 100 µM (inactive)

Record request: GI50 value, item COc1ccc([N+](=O)[O-])c2c(NCCCN(C)C)ccnc12 5.9 µM (inactive)

Suppose we examine the compound COc1c(C)c(C/C=C(\C)CC/C=C(\C)CCC=C(C)C)c(OC)c(OC)c1OC ; what GI50 value has been reported? > 100 µM (inactive)

So what's the measured GI50 for this one? O=C1C=CC(=O)c2cc(Sc3ccccc3)c(=O)ccc21 19.6 µM (inactive)

Can you share its GI50? I mean this compound: O=c1cccccc1NCCCCCCCCNc1cccccc1=O > 100 µM (inactive)

GET /values?readout=GI50&item= COc1ccc(C2CC(c3cc(C)ccc3O)=NC(N)=N2)cc1 (stereo unspecified) > 100 µM (inactive)
